The reported numbers originate from PubChem BioAssay (NCI).

Here the recorded TGI is given for each entry.
tested on: NCI-H460 lung; assay: NCI tumour cell line growth inhibition, 48 h

COMPOUND	COMPARATIVE_SIGN	TGI (µM)
CCCCn1c(C)c(C)c2c1NN=C(C#N)S2(=O)=O	>	100
CCOC(=O)CCN1C(=O)c2ccc(NC(=O)C(=O)O)cc2S1(=O)=O	>	100
CC1=NN(c2cccc(Cl)c2)C(=N/c2nc3ccccc3s2)/C1=C\c1ccccc1O	=	84.4
CCN(CC)c1ccc2[nH]c3c(C(N)=O)cc(=O)c(=O)c=3oc2c1	=	12.6
Cc1c(C(=O)CCl)c(=O)n(-c2ccccc2)n1C	=	32.1
COc1cc(/C=C2\CC(C)CC3C2=NN(c2ccccc2)C3c2cc(OC)c(OC)c(OC)c2)cc(OC)c1OC (stereo not given)	=	28.4
Cc1c(C(=O)N/N=C/c2ccc(O)cc2)nnn1-c1ccnc2c(C(F)(F)F)cccc12	>	100
c1ccc(Oc2c3ccccc3nc3ccccc23)cc1	=	10.3
O=c1oc2ccccc2cc1-c1ccc([N+](=O)[O-])cc1	>	100
COC1C(=[N+]=[N-])C(=O)NC(=O)N1C1OC(COC(c2ccccc2)(c2ccccc2)c2ccccc2)C(O)C1O (stereo not given)	=	60.6

----------
Here the recorded TGI is given for each entry.
test system: SF-539 CNS; test: NCI tumour cell line growth inhibition, 48 h

COMPOUND	TESTED_TARGET	TGI
CCN(Cc1ccc(F)cc1F)c1ccc(CO)c(Cl)c1	SF-539 CNS	31.7 µM
O=S(=O)(O)c1ccc(N=Nc2c(O)ccc3ccccc23)cc1	SF-539 CNS	> 100 µM
CC(=O)O[C@H]1CC[C@@]2(C)C(=CC[C@H]3[C@@H]4C[C@H](N5CCN(C)CC5)[C@H](OC(C)=O)[C@@]4(C)CC[C@@H]32)C1	SF-539 CNS	13.7 µM
NC(=O)c1csc(C2O[C@@H](COP(=O)(O)OP(=O)(O)OC[C@H]3OC(n4cnc5c(N)ncnc54)[C@H](O)[C@@H]3O)[C@H](O)[C@@H]2O)n1 (stereo not given in full)	SF-539 CNS	> 100 µM
O=[N+]([O-])c1ccc(OCCNc2cccc3ccccc23)cc1	SF-539 CNS	> 100 µM
O=C1CC2(CCCc3sccc32)C(=O)N1 (stereo not given)	SF-539 CNS	> 100 µM
CCC(C)C1=C(O)[N+]2([O-])Oc3ccc(-c4c(O)c(O)c(-c5ccc(O)cc5)c(OC(C)=O)c4OC(C)=O)cc3OC2(C(C)CC)C(=O)N1O (stereo not given)	SF-539 CNS	> 50 µM
Cc1ccc(/C(O)=C/c2nc3ccccc3nc2NC23CC4CC(CC(C4)C2)C3)cc1	SF-539 CNS	> 10 µM
CN(C)CCCNC(=O)c1cc(NC(=O)c2cc(NC(=O)CCCN3c4ccccc4C=Cc4ccccc43)cn2C)cn1C	SF-539 CNS	33.5 µM
COc1ccc(-c2c(C#N)c(N)n(C3OCC(O)C(O)C3O)c(=S)c2C#N)cc1 (stereo not given)	SF-539 CNS	> 100 µM
COc1ccc2c(CN3CCC(CO)CC3)cc3cc4c(cc3c2c1)OCO4	SF-539 CNS	1.64 µM
N.N.NCCCCN.O=C([O-])CC(=O)[O-].O=C([O-])CC(=O)[O-].[Pt+4].[Pt+4]	SF-539 CNS	> 100 µM
CCC12CCC(O)C1N(C)CCC2Sc1ccccc1 (stereo not given)	SF-539 CNS	> 100 µM
CN(C)c1ccc(/C=C(\NC(=O)c2ccccc2)c2nc3ccccc3c(=O)o2)cc1	SF-539 CNS	> 100 µM
Clc1ccccc1-c1nn2c(CCCCCCCCc3nnc4sc(-c5ccccc5Cl)nn34)nnc2s1	SF-539 CNS	> 100 µM
CN(C)CCN1N=Nc2cccc3cccc1c23	SF-539 CNS	> 100 µM
COc1ccc(C(=O)c2cc(OC)c(OC)c(OC)c2)cc1/C=C/C(=O)c1ccc(O)cc1	SF-539 CNS	7.9 µM
COc1ccccc1-c1n[nH]c(-c2ccccc2O)n1	SF-539 CNS	> 100 µM
Cc1ccc(C)c(NC(=O)CC2C(=O)Nc3ccccc3S2(=O)=O)c1 (stereo not given)	SF-539 CNS	82.5 µM
N#CC12CCC(O)C(CC1)C2=O (stereo not given)	SF-539 CNS	> 100 µM

----------
Here the recorded GI50 is given for each entry.
tested on: HS 578T breast; assay: NCI tumour cell line growth inhibition, 48 h

COMPOUND	GI50
Cn1cc(-c2nc(-c3c[nH]c4ncccc34)cs2)c2cc(Cl)ccc21	4.18 µM
c1ccc(Oc2c3ccccc3nc3ccccc23)cc1	6.99 µM
CCOC(=O)c1sc2ncn(Cc3cccc(Cl)c3)c(=O)c2c1C	17.5 µM
NCCCn1c2c(c3ccccc3c1=O)C(=O)c1cc3c(cc1-2)OCO3	0.687 µM
CC1/C=C/C=C/CC/C=C/C=C/C=C/C=C/C(OC2OC(C)C(O)C(N)C2O)CC2OC(CC(O)C(O)CCC(O)CC(O)CC(O)CC(=O)OC(C)C(C)C1O)CC(O)C2C(=O)O (stereo not given)	32.5 µg/mL
O=c1oc2ccccc2c(Cl)c1Cl	2.69 µM
O=C(CSc1nc2ccc([N+](=O)[O-])cc2[nH]1)Nc1cccc(C(F)(F)F)c1	2.45 µM
OCc1ccc(N(Cc2ccc(F)cc2)C2CCC2)cc1Cl	19 µM
O=C(Nc1cccc(C2=NCCN2)c1)c1ccc(OCCCOc2ccc(C(=O)Nc3cccc(C4=NCCN4)c3)cc2)cc1	2.55 µM
CC1=C(C(=O)Nc2ccc(F)c(Cl)c2)C(c2cccc(O)c2)NC(=S)N1 (stereo not given)	13.7 µM

----------
Here the recorded TGI is given for each entry.
tested on: SF-295 CNS; test: NCI tumour cell line growth inhibition, 48 h
PROPERTY: TGI

COMPOUND	TESTED_TARGET	PROPERTY	MEASUREMENT
CC1(c2ccccc2)CC12C(=O)NC(=O)NC2=O (stereo unspecified)	SF-295 CNS	TGI	> 100 µM
COc1c(O)cc2oc3cc(O)c(CC=C(C)C)c(O)c3c(=O)c2c1C/C=C(\C)CCC=C(C)C	SF-295 CNS	TGI	9.6 µM
O=C(CCl)Nc1ccccc1SCc1cc(Cl)cc2c1OCOC2	SF-295 CNS	TGI	41.9 µM
O=c1oc2ccccc2cc1-c1ccc([N+](=O)[O-])cc1	SF-295 CNS	TGI	> 100 µM
CN1NC2=NCCN=C3NN(C)C(=NCCN=C1S2)S3	SF-295 CNS	TGI	> 100 µM
c1ccc2c(c1)Sc1ccccc1N2CCCN1c2ccccc2Sc2ccccc21	SF-295 CNS	TGI	> 100 µM
CC(C)(C)c1ccc(Oc2ccc(C#N)c(C#N)c2)c(C(C)(C)C)c1	SF-295 CNS	TGI	> 100 µM
CCCC[P+](CCCC)(CCCC)C(C(=O)OC)C(C(=O)OC)=C1SC(C(=O)OC)=C(C(=O)OC)S1 (stereo unspecified)	SF-295 CNS	TGI	> 100 µM
Cc1ccc(C2=[N+]([O-])c3ccccc3C2=O)cc1	SF-295 CNS	TGI	> 72.5 µM
Clc1ccc(N2COOC3(OOC2)C2CC4CC(C2)CC3C4)cc1	SF-295 CNS	TGI	17.9 µM
O=C(O)C1CCCN1Cc1c[nH]c2ccccc12 (stereo unspecified)	SF-295 CNS	TGI	> 100 µM

----------
tested on: CAKI-1 renal; test: NCI tumour cell line growth inhibition, 48 h
PROPERTY: GI50

COMPOUND	PROPERTY	MEASUREMENT
CCOC(=O)c1sc2ncn(Cc3cccc(Cl)c3)c(=O)c2c1C	GI50	6.19 µM
COc1ccc(-c2nc3sccn3c2/C=C/C(=O)c2cc(OC)c(OC)c(OC)c2)cc1OC	GI50	3.01 µM
COc1cc2c3c(n(CCCO)c(=O)c2cc1OC)-c1cc2c(cc1C3=O)OCO2	GI50	0.465 µM

----------
tested on: NCI-H226 lung; experiment: NCI tumour cell line growth inhibition, 48 h; in the data active means GI50 below about 0.43 µM; inactive means the rest
Outcome codes: class 1 (active), class 0 (inactive)

COMPOUND	TESTED_TARGET	CLASS
c1ccc(Oc2c3ccccc3nc3ccccc23)cc1	NCI-H226 lung	class 0
COc1cccc2c(Nc3ccc(C(=O)NCCNCCO)cc3)cc(-c3ccccc3)nc12	NCI-H226 lung	class 0
COC(=O)/C=C1\SC(=Nc2ccc(C(F)(F)F)cc2)N(CCc2c[nH]c3ccccc23)C1=O	NCI-H226 lung	class 0
CC1/C=C/C=C/CC/C=C/C=C/C=C/C=C/C(OC2OC(C)C(O)C(N)C2O)CC2OC(CC(O)C(O)CCC(O)CC(O)CC(O)CC(=O)OC(C)C(C)C1O)CC(O)C2C(=O)O (centres undefined)	NCI-H226 lung	class 0
Cc1c(C(=O)N/N=C/c2ccc(O)cc2)nnn1-c1ccnc2c(C(F)(F)F)cccc12	NCI-H226 lung	class 0
COc1cc(/C=C2\CC(C)CC3C2=NN(c2ccccc2)C3c2cc(OC)c(OC)c(OC)c2)cc(OC)c1OC (centres undefined)	NCI-H226 lung	class 0
O=C(CSc1nc2ccc([N+](=O)[O-])cc2[nH]1)Nc1cccc(C(F)(F)F)c1	NCI-H226 lung	class 0
COc1c(O)cc2oc3cc(O)c(CC=C(C)C)c(O)c3c(=O)c2c1C/C=C(\C)CCC=C(C)C	NCI-H226 lung	class 0
CCN(Cc1ccc(F)cc1F)c1ccc(CO)c(Cl)c1	NCI-H226 lung	class 1
